- Target Of Assay: EP2 receptor (Homo sapiens, UniProt P43116)
- Construct: SF295 glioblastoma cells express high endogenous EP2 and no EP4
- Sequence (P43116 whole entry): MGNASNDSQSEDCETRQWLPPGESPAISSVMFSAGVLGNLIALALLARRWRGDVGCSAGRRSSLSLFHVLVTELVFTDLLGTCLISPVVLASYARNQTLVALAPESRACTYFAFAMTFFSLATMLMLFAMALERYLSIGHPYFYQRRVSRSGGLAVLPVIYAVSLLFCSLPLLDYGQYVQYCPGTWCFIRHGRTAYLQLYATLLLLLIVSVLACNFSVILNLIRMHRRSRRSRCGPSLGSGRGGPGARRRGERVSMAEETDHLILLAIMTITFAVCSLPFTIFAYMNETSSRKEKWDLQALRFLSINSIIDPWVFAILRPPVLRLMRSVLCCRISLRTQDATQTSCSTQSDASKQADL
- Measurement Protocol: hEP2 cAMP assay (SF295 glioblastoma cells, HTRF cAMP, PGE2 stimulation)
- Conditions: antagonistic activity
Threshold check on IC50: strictly below 40 nM is Met; on or above 40 nM is Not met.

These recorded examples may help you get a feel for the data.
{"Compound": "COc1cc(Cl)cc2c(CCNc3cc(-c4ccc(C(=O)O)c(OC5CCC5)c4F)ncn3)c(C)oc12 [Example 147]", "Label Value": "Not met"}
{"Compound": "CCOc1cc(-c2cc(NCCc3c(C)sc4c(Cl)cc(F)cc34)ncn2)ccc1C(=O)O [Example 65]", "Label Value": "Met"}

**Query** Decide: IC50 of Cc1sc2c(C)cc(F)cc2c1CCNc1cc(-c2ccc(C(=O)O)c(CC(C)C)c2)ncn1 [Example 94] strictly below 40 nM?
**Result** Not met

**Query** Confirm or reject: IC50 of CCOc1cc(-c2cc(NCCc3c(C#N)sc4c(C)cc(F)cc34)ncn2)cc(F)c1CC(=O)O [Example 165] lies strictly below 40 nM
**Result** Not met

**Query** Does the reported IC50 of CCOc1cc(-c2cc(NCCc3c(C)sc4c(C)cccc34)ncn2)ccc1C(C)C(=O)O (racemic) [Example 126] stay below 40 nM?
**Result** Not met

**Query** For CSc1cc(-c2cc(NCCc3c(C)sc4c(C)ccc(Cl)c34)ncn2)ccc1C(=O)O [Example 19] , is the recorded IC50 below the cut-off of 40 nM?
**Result** Not met

---

- Target Of Assay: PTGER4 (EP4) (Homo sapiens, UniProt P35408)
- Sequence (P35408 whole entry): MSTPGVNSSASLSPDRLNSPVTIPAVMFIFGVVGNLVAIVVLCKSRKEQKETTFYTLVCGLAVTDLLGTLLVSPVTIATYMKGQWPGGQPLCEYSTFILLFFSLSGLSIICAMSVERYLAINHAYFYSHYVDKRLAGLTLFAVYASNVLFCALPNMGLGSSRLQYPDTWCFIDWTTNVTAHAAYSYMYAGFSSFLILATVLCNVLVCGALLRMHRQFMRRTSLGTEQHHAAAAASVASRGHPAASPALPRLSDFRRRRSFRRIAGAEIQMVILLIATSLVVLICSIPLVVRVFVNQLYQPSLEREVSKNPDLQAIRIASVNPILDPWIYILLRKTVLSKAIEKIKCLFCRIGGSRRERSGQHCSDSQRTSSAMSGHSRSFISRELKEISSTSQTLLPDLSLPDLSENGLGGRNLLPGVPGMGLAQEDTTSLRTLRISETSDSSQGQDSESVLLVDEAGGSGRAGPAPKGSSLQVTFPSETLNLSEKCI
- Measurement Protocol: hEP4 b-arrestin assay (PathHunter HEK 293 PTGER4 b-arrestin cells)
- Conditions: antagonistic activity, beta-arrestin assay; read-out: hEP4 b-arr IC50
Exercise: state measured pIC50 for each of the molecules provided.
One number for each entry, as −log10 of the molar value.

Recorded results for 10 molecules are shown here.
{"Molecule": "CCOc1cc(-c2cc(NCCc3c(C)sc4c(OC)ccc(Cl)c34)ncn2)ccc1C(=O)O", "pIC50": 6.54}
{"Molecule": "CCOc1cc(-c2cc(NCCc3c(C)sc4c(C)cc(F)cc34)ncn2)sc1/C=C/C(=O)O", "pIC50": 7.80}
{"Molecule": "CCn1cc(-c2cc(NCCc3c(C)sc4c(C)cc(F)cc34)ncn2)cc1C(=O)O", "pIC50": 6.26}
{"Molecule": "CCCc1cc(-c2cc(NCCc3c(C)sc4c(C)cc(F)cc34)ncn2)ccc1CC(=O)O", "pIC50": 6.62}
{"Molecule": "Cc1sc2c(C)cccc2c1CCNc1cc(-c2ccc3c(C(=O)O)coc3c2)ncn1", "pIC50": 5.94}
{"Molecule": "CCOc1cc(-c2cc(NCCc3c(C)sc4c(C)cccc34)ncn2)ccc1C(C)C(=O)O (racemic)", "pIC50": 6.37}
{"Molecule": "CCOc1cc(-c2cc(NCCc3c(C)sc4c(C)cc(F)cc34)ncn2)ccc1C1(C(=O)O)CC1", "pIC50": 6.82}
{"Molecule": "CCOc1cc(-c2cc(NCCc3c(C)sc4c(OC)ccc(F)c34)ncn2)ccc1OCC(=O)O", "pIC50": 7.64}
{"Molecule": "CCOc1cc(-c2cc(NCCc3c(C#N)sc4c(OC)cccc34)ncn2)ccc1C(=O)O", "pIC50": 7.22}
{"Molecule": "CSc1cc(-c2cc(NCCc3c(C)sc4c(C)cccc34)ncn2)ccc1C(=O)O", "pIC50": 6.71}

I need pIC50 for every entry listed below, if you could help.
1. COc1ccc(Cl)c2c(CCNc3cc(-c4ccc(C(=O)O)c(SC)c4)ncn3)c(C)sc12
2. CCOc1cc(-c2cc(NCCc3c(C)sc4c(Cl)ccc(Cl)c34)ncn2)ccc1C(=O)O
3. CCOc1cc(-c2cc(NCCc3c(C)oc4c(OC)ccc(F)c34)ncn2)ccc1C(=O)O
4. CCOc1cc(-c2cc(NCCc3c(C#N)sc4c(C)cc(F)cc34)ncn2)ccc1OCCC(=O)O
5. Cc1cc(-c2cc(NCCc3c(C)oc4ccccc34)ncn2)sc1C(=O)O
6. CCOc1cc(-c2cc(NCCc3c(C)oc4ccccc34)ncn2)ccc1C(=O)O

**Result**
6.77
6.34
6.43
7.72
6.17
5.46
